From: BindingDB's records for patent US20250313563

Target: Glycogen synthase kinase-3 alpha (Homo sapiens, UniProt P49840)
Sequence (P49840 whole entry): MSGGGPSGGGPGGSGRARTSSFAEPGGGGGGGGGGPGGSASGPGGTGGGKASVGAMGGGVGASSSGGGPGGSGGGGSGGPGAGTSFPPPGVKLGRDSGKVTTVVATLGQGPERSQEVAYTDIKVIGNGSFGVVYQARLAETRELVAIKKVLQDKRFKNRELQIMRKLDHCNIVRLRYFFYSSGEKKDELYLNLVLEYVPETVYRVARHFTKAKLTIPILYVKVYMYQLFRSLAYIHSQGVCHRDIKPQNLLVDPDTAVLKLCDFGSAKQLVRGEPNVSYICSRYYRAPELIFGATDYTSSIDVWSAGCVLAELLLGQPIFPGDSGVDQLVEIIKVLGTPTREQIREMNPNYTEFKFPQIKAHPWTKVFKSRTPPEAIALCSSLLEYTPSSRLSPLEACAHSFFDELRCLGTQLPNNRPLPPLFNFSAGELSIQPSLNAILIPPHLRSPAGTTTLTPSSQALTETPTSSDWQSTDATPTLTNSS
endpoint-name: IC50

The cases that follow already have their IC50 on record.
Which measured IC50 value corresponds to CC[C@@]1(c2cccc(C(F)(F)F)c2)C2=CN=NC2NC2=C1C(=O)N(C)C[C@@H]2C (stereo partly drawn) ?
> 5000 nM

Next: O=C1C2=C(NC3N=NC=C3C23CCOCC3)[C@@H]2CC[C@H]1C2 (stereo partly drawn)
100 to 1000 nM

Same again, this time with CC[C@@]1(c2cccc(C3CCCC3)c2)C2=CN=NC2NC2=C1C(=O)CC(C)(C)C2 (stereo partly drawn)
1000 to 5000 nM

Also check CC[C@]1(c2cccc(-c3ccnn3C)c2)C2=CN=NC2NC2=C1C(=O)NC1(CCC1)C2 (stereo partly drawn)
100 to 1000 nM

Moving on to the next compound: CC[C@]1(c2cccc(-c3cc[n+]([O-])c(C)c3)c2)C2=CN=NC2NC2=C1C(=O)CC(C)(C)C2 (stereo partly drawn)
100 to 1000 nM

CCC1(c2cccc(-c3ccnn3CCC(C)C)c2)C2=CN=NC2NC2=C1C(=O)CC(C)(C)C2 (stereo not drawn) , same question.
< 100 nM

Could you do the same for CC[C@]1(c2ccc(OC(C)C)cc2)C2=C(CC(C)(C)CC2=O)NC2N=NC(C(F)(F)F)=C21 (stereo partly drawn) , please?
< 100 nM

Turning to the following compound.
State the recorded IC50 for this entry: CC[C@@]1(c2cccc(-c3cc(C)ncc3C)c2)C2=CN=NC2NC2=C1C(=O)CC(C)(C)C2 (stereo partly drawn)
1000 to 5000 nM
